Origin of values: paper PMC9687610

Answer each item with its documented MIC.
Tested on: Candida tropicalis CCM 8264 (ATCC 750)
PROTOCOL: Antifungal microdilution broth (EUCAST), CT
Format: cell-based
CONDITION_SUMMARY: Candida tropicalis; read after 24 h; read-out: CT MIC

COc1ccc(C(=O)Nc2nccnc2C(N)=O)cc1 [Compound 9] : > 125 µM

// for each compound in input: emit MIC
1. NC(=O)c1nccnc1NC(=O)C12CC3CC(CC(C3)C1)C2 [Compound 28]
2. COC(=O)c1nccnc1NC(=O)c1cccc(Br)c1 [Compound 17e]
3. COC(=O)c1nccnc1NC(=O)c1ccc(Br)cc1 [Compound 18e]
4. NC(=O)c1nccnc1NC(=O)c1cccc(Cl)c1 [Compound 14]
5. NC(=O)c1nccnc1NC(=O)c1ccc([N+](=O)[O-])cc1 [Compound 21]

1: > 500 µM; 2: > 500 µM; 3: > 500 µM; 4: > 125 µM; 5: > 125 µM
